Property: IC50; scope: individual molecules
- Test system: BMP-7 treated NG108-15 cells
- Protocol summary: Antagonism of short-chain alcohol inhibition of cell adhesion in BMP-7 treated NG108-15 cells
- Format: cell-based, rat and mouse
- Condition info: NG108-15, read-out: IC50 for antagonism of 1-butanol (and ethanol) inhibition of cell-cell adhesion
Report as a plain number; the unit µM is understood.

CCCCCO [1-pentanol] | 715

// sample CCCCCCCCO [1-octanol] , its IC50 was 3.6
